Method summary: Viability qHTS for spleen associated tyrosine kinase inhibitor (SYKi) naive MV4-11 cells (AID 1963823); also: nearly all actives have a fitted effect of over 40% in size
Measurement parameters: MV4-11 AML viability, CellTiter-Glo luminescence, 72 h; series mostly up to 45 µM
Protocol: Department of Medicine, Hematology/Oncology University Hospital Frankfurt, Germany. Trials have shown promising clinical activity of the selective SYK inhibitor entospletinib in patients with high expressing HOXA9/MEIS1 acute leukemias. […] 7; Detection; Luminescence; ViewLux plate reader (PerkinElmer). […] 1. Quantitative high-throughput screening (qHTS) of small molecule compounds was conducted on naive SYKi MV4-11 cell line. […] 7. Luminescence was measured on a ViewLux plate reader (PerkinElmer).
Inconclusive results are not listed. The source made the active and inactive calls. Calls follow the shape of the dose curve; as a rule, active = well fitted cell-killing curve with a large enough effect; inconclusive = small, poorly fitted or top-dose-only effect, or effect the other way; inactive = no such curve, though single readings can be large or run the other way.

Compound	viability (% of control)
C[C@@H]1O[C@@H](O[C@H]2[C@H](O[C@H]3[C@H](O[C@H]4CC[C@@]5(C)C(CC[C@]6(C)C5CC=C5[C@@H]7CC(C)(C)C[C@@H](O)[C@]7(C)CC[C@]56C)[C@@]4(C)CO)O[C@H](C(=O)O)[C@@H](O)[C@@H]3O)O[C@H](CO)[C@H](O)[C@@H]2O)[C@H](O)[C@H](O)[C@H]1O (stereo partly drawn)	74.1% [at 9.25 µM] (inactive)
CC(=O)N[C@@H](CCCCN)C(=O)N(C)[C@@H](CC(C)C)C(=O)N[C@H](C(=O)N(C)[C@@H](Cc1ccccc1)C(=O)N[C@H](Cc1ccccc1)C(N)=O)C(C)C	93.5% [at 4.97 µM] (inactive)
C[C@@H]1O[C@@H](O[C@H]2[C@H](OC(=O)[C@]34CCC(C)(C)C[C@H]3C3=CCC5[C@@]6(C)CC[C@H](O[C@@H]7O[C@H](CO[C@@H]8OC[C@H](O)[C@H](O)[C@H]8O)[C@@H](O)[C@H](O)[C@H]7O)C(C)(C)C6CC[C@@]5(C)[C@]3(C)C[C@H]4O)OC[C@@H](O)[C@@H]2O)[C@H](O)[C@H](O[C@@H]2OC[C@](O)(CO)[C@H]2O)[C@H]1O[C@@H]1OC[C@H](O)[C@H](O[C@@H]2OC[C@@H](O)[C@H](O)[C@H]2O)[C@H]1O (stereo partly drawn)	88.4% [at 9.25 µM] (inactive)
